Values were extracted from patent US4396613A.

# Tested on: Streptococcus sp. 80
Documented MIC across a set of compounds

Consider the reported MIC for these compounds:
Prompt: Consider the compound CCC1OC(=O)CC(O)C(C)C(OC2OC(C)C(OC3CC(C)(O)C(O)C(C)O3)C(N(C)C)C2OC(C)=O)C(CC=O)CC(C)C(=O)C=CC(C)=CC1COC(=O)NCc1ccccc1 (centres unmarked) . State its measured MIC.
Response: 0.78 µg/mL

Prompt: Consider the compound CCC1OC(=O)CC(O)C(C)C(OC2OC(C)C(OC3CC(C)(O)C(O)C(C)O3)C(N(C)C)C2OC(C)=O)C(CC=O)CC(C)C(=O)C=CC(C)=CC1COC(=O)COc1ccccc1 (centres unmarked) . State its measured MIC.
Response: 0.195 µg/mL

Prompt: Consider the compound CCC1OC(=O)CC(O)C(C)C(OC2OC(C)C(OC3CC(C)(O)C(O)C(C)O3)C(N(C)C)C2O)C(CC=O)CC(C)C(=O)C=CC(C)=CC1COC(=O)NCCN1CCOCC1 (centres unmarked) . State its measured MIC.
Response: 0.78 µg/mL

Prompt: Consider the compound CCC1OC(=O)CC(O)C(C)C(OC2OC(C)C(OC3CC(C)(O)C(O)C(C)O3)C(N(C)C)C2OC(C)=O)C(CC=O)CC(C)C(=O)C=CC(C)=CC1COC(=O)C(C)(C)C (centres unmarked) . State its measured MIC.
Response: > 0.78 µg/mL

New cases:
Prompt: Consider the compound CCC1OC(=O)CC(O)C(C)C(OC2OC(C)C(OC3CC(C)(O)C(O)C(C)O3)C(N(C)C)C2OC(C)=O)C(CC=O)CC(C)C(=O)C=CC(C)=CC1COC(C)=O (centres unmarked) . State its measured MIC.
Response: 0.78 µg/mL
